B1: RTP4 (parent)
chain: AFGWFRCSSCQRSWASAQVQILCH

variants of: B1; assay: protein stability index of a GFP-peptide fusion (GPS, HEK-293T) (PSI 1-6); higher = more stable; details: c terminus: a fixed tail appended;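 further: lentivirally expressed fusions sorted by FACS into six bins by GFP to DsRed ratio, PSI derived from sequencing read proportions per bin multiplied by bin number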
Consider the following partition of reported protein stability index into named classes: L = under 2, M = from 2 up to 3, H = 3 and over

As a guide, the following entries are already answered.
{"SEQUENCE CODE": "AFGWFRCSSCQRSWASAQSQILCH [V19S]", "CATEGORY LABEL": "M"}
{"SEQUENCE CODE": "AFGWFRCSSCQRSWASAQVAILCH [Q20A]", "CATEGORY LABEL": "L"}
{"SEQUENCE CODE": "AFGWFRCSSCQRSWDSAQVQILCH [A15D]", "CATEGORY LABEL": "L"}
{"SEQUENCE CODE": "AFGWFRCSSCQRSTASAQVQILCH [W14T]", "CATEGORY LABEL": "H"}
{"SEQUENCE CODE": "AFGWFRCSSCQRSWYSAQVQILCH [A15Y]", "CATEGORY LABEL": "M"}
{"SEQUENCE CODE": "AFGWFRCSSCVRSWASAQVQILCH [Q11V]", "CATEGORY LABEL": "H"}
{"SEQUENCE CODE": "AFGWFRCSSCQRNWASAQVQILCH [S13N]", "CATEGORY LABEL": "H"}
{"SEQUENCE CODE": "AFHWFRCSSCQRSWASAQVQILCH [G3H]", "CATEGORY LABEL": "L"}

// bin(item) where item = AFGWFRCSSCQRSSASAQVQILCH [W14S] M

// bin(item) where item = AFGWFRCSSRQRSWASAQVQILCH [C10R] M

Source: the supplement of paper PMC10567573
